# Tested on: 786-0 renal
# Test Method Notes: NCI tumour cell line growth inhibition, 48 h
Please provide measured GI50 for the entries that follow.

I'd like to know its GI50. The compound in question is Cl.[O-]c1cccc2cccnc12.[O-]c1cccc2cccnc12.[O-]c1cccc2cccnc12.[O-]c1cccc2cccnc12.[Ti+4] 0.567 µM

Fill in the blank: the reported GI50 of CCOC1Oc2ccccc2C(=O)/C1=C\Nc1ccc(C(=O)O)c(O)c1 (centres undefined) is ____. 30.1 µM

Quick one: GI50 for COc1ccc(Cl)cc1Nc1nc(C(F)(F)F)ccc1C(=O)N/N=C/c1ccccc1Cl ? 4.66 µM

I'd like to know its GI50. The compound in question is COc1ccc2[nH]cc(Cc3c[nH]c4ccc(OC)cc34)c2c1 38.9 µM

So what does the record say about GI50 for CCN(CC)CCNc1ccc(N=Nc2cnc3ccccc3c2)c2ccccc12 ? 1.93 µM

Entry CCN(CC)CCOc1ccc(NC(=O)C(C(C)C)N2C(=O)/C(=C/c3ccc(Br)cc3)SC2=S)cc1 (centres undefined) : reported GI50 = ? 1.76 µM

# query: GI50 of entry COc1ccc(-c2nsc3c2NC(=O)CC3c2cccc(F)c2)cc1 (centres undefined) 8.22 µM

Which GI50 is reported for this compound? O=C(CCN1CCCC1)Nc1ccc2c(Nc3ccc(Br)cc3)c3ccccc3nc2c1 1.5 µM

Name the reported GI50 value associated with the compound CC[C@H](C)C(=O)O[C@H]1CCC=C2C=C[C@H](C)[C@H](CC[C@@H]3C[C@@H](O)CC(=O)O3)[C@H]21 8.95 µM

---

I'd appreciate it if you could supply GI50 values for the items below.
# Test system: HS 578T breast
# Test Method Notes: NCI tumour cell line growth inhibition, 48 h

What is its GI50 for HS 578T breast? Entry: O=C1c2c(c3c4ccccc4n(CCCCCCN4CCOCC4)c3c3[nH]c4ccccc4c23)C(=O)N1O 2070 nM

Lab request: please report GI50 under test system HS 578T breast for CCN(CC)CCOc1ccc(NC(=O)C(C(C)C)N2C(=O)/C(=C/c3ccc(Br)cc3)SC2=S)cc1 (centres undefined) 12100 nM

Look up GI50 with HS 578T breast for this molecule: COc1ccc2[nH]cc(Cc3c[nH]c4ccc(OC)cc34)c2c1 15600 nM

Param readout = GI50; param system = HS 578T breast; param query = CCN(CC)CCNc1ccc(N=Nc2cnc3ccccc3c2)c2ccccc12 ; response: value 2620 nM

Item: Cc1cnc(-c2ccc(-c3ccc(NC(=O)Nc4cccc(C(F)(F)F)c4)cc3F)c3c2C(=O)NC3)[nH]1 Test system: HS 578T breast Read-out: GI50 Value: ? 2460 nM

What GI50 appears in the records for this molecule with HS 578T breast? CN(CCCCCCCCNc1ccnc2ccccc12)Cc1ccc(-c2ccc(-c3ccc(C#N)cc3)s2)cc1 1750 nM

Find GI50 (HS 578T breast) for the entry COc1ccccc1-c1ccc2c(N)c(C(=O)c3ccc4c(c3)OCO4)sc2n1 7970 nM

Item Cc1ccc2c(c1)C(=O)/C(=C/c1cccc(OCC(=O)c3ccc(Cl)cc3)c1)CS2 with HS 578T breast - GI50? 1540 nM

Query GI50 on HS 578T breast for COc1ccc(-c2nsc3c2NC(=O)CC3c2cccc(F)c2)cc1 (centres undefined) 3950 nM

---

# Test system: NCI-H460 lung
# Test Method Notes: NCI tumour cell line growth inhibition, 48 h
Readout Kind: TGI

Request the reported TGI associated with COc1ccc2c(c1)C(=O)/C(=C/c1cccc(OCC(=O)c3ccc([N+](=O)[O-])cc3)c1)CO2 11.6 µM

Give its TGI value. Item: CC(=O)O[C@H]1C(=O)[C@@]2(C)[C@H]([C@H](OC(=O)c3ccccc3)[C@]3(O)C[C@H](OC(=O)[C@H](O)[C@@H](NC(=O)OC(C)(C)C)c4ccco4)C(C)=C1C3(C)C)[C@]1(OC(C)=O)CO[C@@H]1C[C@@H]2O > 19 µM

Quick one: TGI for CCOC(=O)C1=C(C)C2C3C(=O)OC(=O)C3C1(C)C1C(=O)OC(=O)C21 (stereo not drawn) ? > 100 µM

Query (compound): Cc1ccc(C(CCO)CCO)nc1 ; field requested: TGI > 100 µM

Which TGI is listed for NS(=O)(=O)c1ccc(-n2nc(-c3ccccc3)cc2-c2cc(O)ccc2O)cc1 ? > 100 µM

Record request: TGI value, item O=C(O)CCC1(CCC(=O)O)CCCCCCCCC(CCC(=O)O)(CCC(=O)O)C(=O)C1=O > 100 µM

Name the recorded TGI for CCCCCC1CC(C(C)=O)CN1c1ccc(F)cc1 (stereo not drawn) . > 100 µM

GET /values?readout=TGI&item= C=C1C(=O)O[C@H]2[C@H]1CC/C(CNC(=O)C(C)c1ccc(CC(C)C)cc1)=C\CC[C@@]1(C)O[C@@H]21 (stereo partly drawn) 3.97 µM

---

# Test system: SF-295 CNS
# Test Method Notes: NCI tumour cell line growth inhibition, 48 h
Kindly state TGI for each of the entries shown.
Lab book: enter the figure in µM, no units written.

For the compound shown here, CC(=O)Oc1ccc(C)c2c1[C@H]1CC[C@]3(C)[C@@H](OC(C)=O)CC[C@H]3[C@@H]1CC2 , give the reported TGI. 48.5

# input compound: CCN(CC)CCNc1ccc(N=Nc2cnc3ccccc3c2)c2ccccc12 ; wanted: its TGI 3.38

Query: TGI; subject: N#Cc1ccc(O)c(C2=NCC(c3ccc(-c4ccccc4)cc3)O2)c1 (stereo not given) 11.8

I would be grateful if you could share the reported TGI for CCN(CC)CCC(=O)Nc1ccc2sc3ccccc3c(=O)c2n1 . 48.9

---

I'd be grateful if you could share measured TGI for these entries.
# Test system: SN12C renal
# Test Method Notes: NCI tumour cell line growth inhibition, 48 h

What value of TGI has been recorded for this entry: O=c1oc2ccc(I)cc2c(=O)n1-c1ccc(I)cc1F 6.49 µM

# lookup: TGI of COC(=O)/C=C(C)/C=C/c1c(C)c(C(C)=O)c(C)n1C > 100 µM

Dear colleague, I am looking for the recorded TGI of the following molecule: Cc1cnc2c(c1)C(=O)N(c1ccc(Br)cc1)S2(=O)=O > 100 µM

// query TGI value for entry CC(NNC(=S)N1CCCC1)c1cccnn1 (stereo not drawn) > 100 µM

Record request: TGI value, item O=C(CS(=O)c1nc2ccccc2nc1-c1ccccc1)Nc1ccc(Cl)cc1 (stereo not drawn) 33.7 µM

Fill in: TGI of NC1C2C=CC(C2)C1C(=O)O (stereo not drawn) is ___ > 100 µM

What value of TGI has been reported for the following molecule? CC(C)(C)c1cc(OCc2n[nH]c(=S)n2N)c(Cl)cc1OCc1n[nH]c(=S)n1N 94 µM

Look at this molecule and give its reported TGI. O=C(O)CC(S)C(=O)O.[Li+].[Sb] (stereo not drawn) > 100 µM

Using the record for CN(C)c1ccc2cc3c(cc2c1)Oc1ccccc1N3.[Cl][Zn][Cl] , report its TGI. 63.9 µM

Item CC(=O)OC1CC2C(=O)CC1(C)C2(C)C (stereo not drawn) has what recorded TGI? > 100 µM

Bench note: what TGI did CSc1c(S(C)=O)c2ccccc2n1C (stereo not drawn) show? > 100 µM

So what does the record say about TGI for Cc1ccc(/C=C2\CCS(=O)(=O)c3ccccc3C2=O)cc1 ? 45.1 µM

Reported TGI for CCOC(=O)NC(C(F)(F)F)(C(F)(F)F)P(=O)(OCC)OCC : what is it? > 100 µM

What does the data say about its TGI? Entry: Cn1c2ccccc2c2c(=O)n(CCCC(=O)NCCc3cnc[nH]3)c3c(-c4ccccc4)nnn3c21 18.7 µM

Give the measured TGI of O=C(CC1(O)C(=O)Nc2c(Cl)cc(Cl)cc21)c1ccc([N+](=O)[O-])cc1 (stereo not drawn) . > 68 µM

TGI lookup needed for O=C(Nc1ccccc1)c1cc2cc(CCl)ccc2oc1=O , thanks. > 100 µM

Reported TGI for O=C(Cn1c2ccc(Br)cc2c2nc3ccccc3nc21)N1CCOCC1 : what is it? > 100 µM

Any idea what TGI was measured for CCCc1nn(C)c(CCC(=O)N(Cc2ccccc2)Cc2ccccc2)c1CC ? > 100 µM

Item under review: COc1ccc(-c2nsc3c2NC(=O)CC3c2cccc(F)c2)cc1 (stereo not drawn) . Reported TGI? > 100 µM

# input molecule: CC1=C(N2CC2)C(=O)C(C)=C(N2CC2)C1=O ; wanted: its TGI 1.59 µM

// TGI lookup, key: COC1=C(OC)C(=O)C(C/C=C/c2c(Cl)nc3sccn23)=C(C)C1=O 31.7 µM

If you can, please state the reported TGI value of O=C(/C=C/c1ccc(Cl)cc1)c1nc2ccccc2[nH]1 . > 100 µM

State the recorded TGI for this entry: O=[N+]([O-])c1cc(C(F)(F)F)cc2c1SC1=Nc3ccccc3CN12 > 100 µM

Cited source: PubChem BioAssay (NCI)
